Tested on: DOV13 (Ovarian Carcinoma)
Assay: combination Emax (second highest fraction inhibited in the dose matrix, 72 h); higher = more inhibition; extreme values may be limits of the assay
Label met for high-side combination Emax (at or above 0.7) and not met for low-side combination Emax (below it).

Check if combination Emax >= 0.7 (inclusive). Item: Cc1c2c(nn1C)CSCc1cc(n(C)n1)CSc1cc(c3ccccc3c1)OCCCc1c(C(=O)O)n(C)c3c-2c(Cl)ccc13 [AZD5991] + CC1(C)CCC(CN2CCN(c3ccc(C(=O)NS(=O)(=O)c4ccc(NCC5CCOCC5)c([N+](=O)[O-])c4)c(Oc4cnc5[nH]ccc5c4)c3)CC2)=C(c2ccc(Cl)cc2)C1 [Venetoclax] (first compound max 1 µM, 7x7, partner max 1 µM)
not met

Check if combination Emax >= 0.7 (inclusive). Item: CN(CCO)CC[C@H](CSc1ccccc1)Nc1ccc(S(=O)(=O)NC(=O)c2ccc(N3CCC([C@@H](O)c4ccccc4-c4ccc(Cl)cc4)CC3)cc2)cc1S(=O)(=O)C(F)(F)F [AZD4320] + C[C@@H](Nc1cc(F)cc(F)c1)c1cc(C(=O)N(C)C)cc2c(=O)cc(N3CCOCC3)oc12 [AZD8186] (first compound max 1 µM, 7x7, partner max 3 µM)
met

Check if combination Emax >= 0.7 (inclusive). Item: CN(CCO)CC[C@H](CSc1ccccc1)Nc1ccc(S(=O)(=O)NC(=O)c2ccc(N3CCC([C@@H](O)c4ccccc4-c4ccc(Cl)cc4)CC3)cc2)cc1S(=O)(=O)C(F)(F)F [AZD4320] + Cn1cnc2c(F)c(Nc3ccc(Br)cc3Cl)c(C(=O)NOCCO)cc21 [Selumetinib] (first compound max 1 µM, 7x7, partner max 3 µM)
met

Check if combination Emax >= 0.7 (inclusive). Item: CC(=O)Nc1cccc(-n2c(=O)n(C3CC3)c(=O)c3c(Nc4ccc(I)cc4F)n(C)c(=O)c(C)c32)c1 [Trametinib] + Cc1nc(-c2cn3c(n2)-c2ccc(-c4cnn(C(C)(C)C(N)=O)c4)cc2OCC3)n(C(C)C)n1 [Taselisib] (first compound max 1 µM, 7x7, partner max 10 µM)
met

Check if combination Emax >= 0.7 (inclusive). Item: O=C(c1cc(Cc2n[nH]c(=O)c3ccccc23)ccc1F)N1CCN(C(=O)C2CC2)CC1 [Olaparib] + CC1(C)CCC(CN2CCN(c3ccc(C(=O)NS(=O)(=O)c4ccc(NCC5CCOCC5)c([N+](=O)[O-])c4)c(Oc4cnc5[nH]ccc5c4)c3)CC2)=C(c2ccc(Cl)cc2)C1 [Venetoclax] (first compound max 10 µM, 7x7, partner max 1 µM)
not met

The values you see were collected from the supplement of paper PMC11061612.
